test: Single ascending dose study, plasma pharmacokinetics of Compound (1) and GHB; type: in vivo, human; conditions: human, plasma, po, 4.5 g, Cohort 5 (4.50 g) single oral dose, fasted; read-out: Compound (1) plasma t1/2, Median (converted)
parameter measured: half-life (h)
The figure you give is taken to be in h; do not add the unit.

For CC(C)[C@H](N)C(=O)OCCCC(=O)O , what is its reported half-life?
1.13

###

experiment: Food effect and relative bioavailability crossover study, Compound (1) vs sodium oxybate; conditions: human, plasma, po, 7.25 g, Compound (1) plasma AUC0-tlast, Mean, 7.25 g Compound (1) oral, Fed
parameter measured: AUC(0-t)
A bare number is not enough; add the unit after it.

For CC(C)[C@H](N)C(=O)OCCCC(=O)O , what is its reported AUC(0-t)?
28800 ng·h/mL
